Recorded values, source patent US7470711B2.

// values below are reported Ki
Molecular target: α1a-AR (Homo sapiens, UniProt P35348)
Construct: expressed in transfected cells; host or cells: COS-7 cells (membranes)
Sequence (P35348 1-455 isoform P35348-4): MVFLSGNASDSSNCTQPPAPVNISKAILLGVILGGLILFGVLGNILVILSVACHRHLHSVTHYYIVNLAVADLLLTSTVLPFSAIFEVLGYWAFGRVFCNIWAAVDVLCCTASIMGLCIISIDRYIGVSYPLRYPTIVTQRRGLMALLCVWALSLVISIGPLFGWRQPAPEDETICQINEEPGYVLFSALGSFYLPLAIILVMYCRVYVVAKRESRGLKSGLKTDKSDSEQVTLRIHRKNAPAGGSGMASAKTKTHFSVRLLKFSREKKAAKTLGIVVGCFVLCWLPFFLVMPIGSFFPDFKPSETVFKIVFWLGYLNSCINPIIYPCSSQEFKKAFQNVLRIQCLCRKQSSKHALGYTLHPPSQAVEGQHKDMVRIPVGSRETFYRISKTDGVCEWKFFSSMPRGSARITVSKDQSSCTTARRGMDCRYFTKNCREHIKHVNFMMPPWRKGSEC
Assay: α1-Adrenergic receptor radio-ligand binding assay, α1a subtype
Settings: 125I-HEAT, membranes of COS-7 cells transfected with α1a subtype, rt 1 hr; read-out: Receptor Binding, Ki α1a-AR
Measure: Ki (nM)

Smiles input: COc1ccc(S(=O)(=O)N[C@H]2CC[C@@H](N3CCC(c4ccccc4OCCF)CC3)CC2)cc1OC
Reported measurement: 10.9
//
Smiles input: O=S(=O)(N[C@H]1CC[C@@H](N2CCC(c3ccccc3OC3CC3)CC2)CC1)c1cc(Cl)ccc1F
Reported measurement: 1.8
//
Smiles input: O=S(=O)(N[C@H]1CC[C@@H](N2CCC(c3ccccc3OCC(F)(F)F)CC2)CC1)c1ccc(OC(F)F)cc1
Reported measurement: 5.4
//
Smiles input: COc1ccc(Cl)cc1S(=O)(=O)N[C@H]1CC[C@H](N2CCC(c3ccccc3OC3CC3)CC2)CC1
Reported measurement: 4.5
